- Tested on: Tacaribe virus
- Experimental protocol: microbe, parasite or virus in culture
- Format: cell-based
- Experimental setup: Mammarenavirus tacaribeense, Vero, read-out: Tacaribe EC50
Quantity measured: EC50

Data request: May I ask what EC50 has been recorded for CC(NC(=O)Nc1ccccc1C(F)(F)F)(C(F)(F)F)C(F)(F)F [Example 97] ?
Data returned: > 5 µM

* * *

pEC50 by entry:
- Tested on: Junín
- Experimental protocol: microbe, parasite or virus in culture
- Format: cell-based, Junin virus
- Experimental setup: Mammarenavirus juninense, HEK-293T, read-out: Antiviral activity vs. pseudotyped viruses: Junín
pEC50: −log10 of the molar value.

Compound	Measurement target	pEC50
CCC(NC(=O)NNS(=O)(=O)c1cccc2c(N(C)C)cccc12)(C(F)(F)F)C(F)(F)F [Compound 110]	Junín	> 6.00

Consider now this further compound.
Data request: Please give the measured pEC50 for this compound: CCC(NC(=O)NNS(=O)(=O)c1ccc(-c2csnn2)cc1)(C(F)(F)F)C(F)(F)F [Compound 114]
Data returned: > 6.00
